FYI, the data here is from patent US4992450A.

Biological target: kappa receptors (Rattus norvegicus, UniProt P34975)
Construct: sixty male Long-Evans hooded rats; from tissue; host or cells: whole living male Long-Evans hooded rats (in vivo)
Sequence (P34975 whole entry): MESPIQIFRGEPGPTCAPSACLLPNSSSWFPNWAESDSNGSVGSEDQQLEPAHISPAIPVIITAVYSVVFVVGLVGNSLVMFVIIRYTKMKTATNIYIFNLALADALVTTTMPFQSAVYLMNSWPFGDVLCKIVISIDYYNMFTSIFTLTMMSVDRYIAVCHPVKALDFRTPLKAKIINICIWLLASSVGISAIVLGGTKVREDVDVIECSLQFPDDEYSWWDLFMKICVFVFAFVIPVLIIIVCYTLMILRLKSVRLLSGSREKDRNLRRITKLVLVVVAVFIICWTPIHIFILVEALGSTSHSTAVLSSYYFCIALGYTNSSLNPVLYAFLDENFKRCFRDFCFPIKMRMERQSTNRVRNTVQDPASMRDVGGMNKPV
Assay: Rat diuresis assay, antagonism of bremazocine-induced urination
Assay type: in vivo, male Long-Evans hooded rats
Settings: sc, 2 h, rats, s.c., urinary output reduced to 50% of effect of 0.08 mg/kg bremazocine alone, two hours after injection, read-out: AD50 Two Hours
Structures can show the parent of a compound that is named as a salt.
Recorded Endpoint: ED50
I'd appreciate it if you included the unit after the number.

Some compounds with known ED50 results, for comparison:
[
  {
    "Compound": "C[C@H]1CN(CCC(O)c2cccs2)CC[C@@]1(C)c1cccc(O)c1 (relative stereo) [Example 40, hydrochloride]",
    "ED50": "3.78 mg/kg"
  },
  {
    "Compound": "CC1CN(CCCc2ccsc2)CCC1(C)c1cccc(O)c1 (stereo not shown) [Example 41, hydrochloride]",
    "ED50": "2.7 mg/kg"
  },
  {
    "Compound": "CC1CN(CCC(C)(C)C)CCC1(C)c1cccc(O)c1 (stereo not shown) [Example 12, hydrochloride]",
    "ED50": "7.89 mg/kg"
  }
]

Q. Need ED50, item CCCCCN1CCC(C)(c2cccc(O)c2)C(C)C1 (stereo not shown) [Example 14, hydrochloride]
A. 0.78 mg/kg

====

Target: kappa receptor (Mus musculus)
Construct: Five CF-1 male mice (Charles River, Portage, Mich.); from tissue; host or cells: whole living CF-1 male mice (in vivo)
Sequence (P33534 whole entry): as the sequence (P34975 whole entry) above, with E11D, A17S, P51S, V308A counted along it
Test: in vivo
Set-up: species or system CF-1 male mice
Conditions: sc, read-out: Kappa AD50
Structures can show the parent of a compound that is named as a salt.
Reported ED50 values for the following molecules.
Returns: string containing the numeric result and its unit.

[
  {
    "Molecule": "C=C(C)CCCN1CCC(C)(c2cccc(O)c2)C(C)C1 (stereo not shown) [Example 3, hydrochloride]",
    "ED50": "0.29 mg/kg"
  },
  {
    "Molecule": "C[C@H]1CN(C)CC[C@@]1(C)c1cccc(O)c1 (relative stereo) [Compound B, hydrochloride, reference compound]",
    "ED50": "2.5 mg/kg"
  }
]

Q. Endpoint output: ED50 of CC(C)C(O)CCN1CC[C@@](C)(c2cccc(O)c2)[C@@H](C)C1 (relative stereo) [Example 20, hydrochloride] . Value?
A. 0.35 mg/kg

Q. # iterate: CC(C)CCCCN1CC[C@](C)(c2cccc(O)c2)[C@H](C)C1 (stereo in doubt) [Example 29, hydrochloride]
A. 0.89 mg/kg

Q. Here is the next molecule: C[C@@H]1CN(CCCc2cccs2)CC[C@]1(C)c1cccc(O)c1 (stereo in doubt) [Example 37, hydrochloride]
A. 0.65 mg/kg

Q. Another molecule to look at: CC1CN(CCCC2CCCC2)CCC1(C)c1cccc(O)c1 (stereo not shown) [Example 9, hydrochloride]
A. 0.13 mg/kg

Q. Another molecule: CC1CN(CCCc2ccsc2)CCC1(C)c1cccc(O)c1 (stereo not shown) [Example 41, hydrochloride]
A. 0.24 mg/kg

====

Molecular target: kappa receptors (Rattus norvegicus, UniProt P34975)
Construct: sixty male Long-Evans hooded rats; from tissue; host or cells: whole living male Long-Evans hooded rats (in vivo)
Assay: Rat diuresis assay, antagonism of bremazocine-induced urination
Assay type: in vivo, male Long-Evans hooded rats
Details: sc, 2 h, rats, s.c., urinary output reduced to 50% of effect of 0.08 mg/kg bremazocine alone, two hours after injection, read-out: AD50 Two Hours
Structures can show the parent of a compound that is named as a salt.
Recorded Endpoint: ED50 (mg/kg)
Kindly answer with a numeric value in mg/kg, unit omitted.

Consider the worked cases shown below.
[
  {
    "Molecule": "CC1CN(CCCc2cccs2)CCC1(C)c1cccc(O)c1 (stereo not shown) [Example 35, hydrochloride]",
    "U": "mg/kg",
    "Measured Value": 2.2
  },
  {
    "Molecule": "CCCCCCN1CCC(C)(c2cccc(O)c2)C(C)C1 (stereo not shown) [Example 22, hydrochloride]",
    "U": "mg/kg",
    "Measured Value": 1.31
  },
  {
    "Molecule": "C=C(C)CCCN1CCC(C)(c2cccc(O)c2)C(C)C1 (stereo not shown) [Example 3, hydrochloride]",
    "U": "mg/kg",
    "Measured Value": 0.27
  },
  {
    "Molecule": "C[C@H]1CN(CCCc2cccs2)CC[C@@]1(C)c1cccc(O)c1 (stereo in doubt)",
    "U": "mg/kg",
    "Measured Value": 4.65
  },
  {
    "Molecule": "C[C@@H]1CN(CCCc2cccs2)CC[C@]1(C)c1cccc(O)c1 (stereo in doubt) [Example 37, hydrochloride]",
    "U": "mg/kg",
    "Measured Value": 2.92
  },
  {
    "Molecule": "CCCCCCCN1CCC(C)(c2cccc(O)c2)C(C)C1 (stereo not shown) [Example 8, hydrochloride]",
    "U": "mg/kg",
    "Measured Value": 3.77
  },
  {
    "Molecule": "CC1CN(CC2CCCC2)CCC1(C)c1cccc(O)c1 (stereo not shown) [Example 5, hydrochloride]",
    "U": "mg/kg",
    "Measured Value": 1.91
  },
  {
    "Molecule": "C[C@H]1CN(CC[C@H](O)C2CCCCC2)CC[C@@]1(C)c1cccc(O)c1",
    "U": "mg/kg",
    "Measured Value": 0.4
  }
]

Q. Name the recorded ED50 for CC(C)CCCCN1CCC(C)(c2cccc(O)c2)C(C)C1 (stereo not shown) [Example 4, hydrochloride] .
A. 0.17

Q. Now the same for CC1CN(CCCC2CCCC2)CCC1(C)c1cccc(O)c1 (stereo not shown) [Example 9, hydrochloride]
A. 2.4

Q. Also, CC(C)CCCN1CCC(C)(c2cccc(O)c2)C(C)C1 (stereo not shown) [Example 15, hydrochloride] please.
A. 0.27

Q. Same again, this time with C[C@H]1CN(CCC(O)c2ccccc2)CC[C@@]1(C)c1cccc(O)c1 (relative stereo) [Compound A, hydrochloride, reference compound]
A. 4.09

Q. Would you mind doing CC1CN(CCCC2CCCCC2)CCC1(C)c1cccc(O)c1 (stereo not shown) [Example 11, hydrochloride] as well?
A. 1.9
